Recorded values, source patent US10508086B2.

# EXPERIMENTAL_TARGET: Human Full Length PARG (Homo sapiens (Human), UniProt Q86W56)
# Sequence (Q86W56 whole entry): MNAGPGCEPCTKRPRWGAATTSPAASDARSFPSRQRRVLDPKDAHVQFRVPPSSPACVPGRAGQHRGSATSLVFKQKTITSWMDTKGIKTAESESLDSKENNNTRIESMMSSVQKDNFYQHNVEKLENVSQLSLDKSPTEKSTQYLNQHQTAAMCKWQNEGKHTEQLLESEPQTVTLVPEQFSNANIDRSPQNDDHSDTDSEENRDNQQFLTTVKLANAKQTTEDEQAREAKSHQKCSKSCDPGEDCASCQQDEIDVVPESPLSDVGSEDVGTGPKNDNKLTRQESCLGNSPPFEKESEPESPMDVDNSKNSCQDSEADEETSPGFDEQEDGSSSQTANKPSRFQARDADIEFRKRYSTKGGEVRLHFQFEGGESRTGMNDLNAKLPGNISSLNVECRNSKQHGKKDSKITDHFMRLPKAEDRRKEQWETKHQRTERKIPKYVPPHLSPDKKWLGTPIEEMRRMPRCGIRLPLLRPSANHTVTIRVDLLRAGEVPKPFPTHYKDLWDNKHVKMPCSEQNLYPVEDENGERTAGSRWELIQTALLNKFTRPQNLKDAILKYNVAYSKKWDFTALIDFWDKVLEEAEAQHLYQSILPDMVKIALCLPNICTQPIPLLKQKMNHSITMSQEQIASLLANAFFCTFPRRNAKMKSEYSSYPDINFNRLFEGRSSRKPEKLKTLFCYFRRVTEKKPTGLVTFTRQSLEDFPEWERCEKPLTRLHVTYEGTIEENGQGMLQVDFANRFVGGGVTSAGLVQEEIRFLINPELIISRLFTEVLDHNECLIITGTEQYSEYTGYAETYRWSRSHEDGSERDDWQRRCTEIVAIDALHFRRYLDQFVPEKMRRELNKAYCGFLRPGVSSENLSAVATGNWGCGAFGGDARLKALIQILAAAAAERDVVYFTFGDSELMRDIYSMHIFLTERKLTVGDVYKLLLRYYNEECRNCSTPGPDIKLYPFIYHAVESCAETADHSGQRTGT
# ASSAY_EXPLANATION: PARG in vitro enzyme assay (TR-FRET)
# CONDITION_NOTES: read-out: PARG_EC50_ENZYME
// thresholds for EC50 classes: low = under 400 nM, medium = from 400 nM up to 4000 nM, high = 4000 nM and over

Using the reported EC50, which band applies to Cc1nsc(-n2c(=O)n(C)c3ccc(S(=O)(=O)NC4(C)CC4)cc32)n1 ?
high

// return the class label for Cc1nnc(-n2c(=O)n(CCC(N)=O)c3ccc(S(=O)(=O)NC4(C)CC4)cc32)s1
medium

Class? Entry: Cc1nsc(-n2c(=O)n(CCN(C)C)c3ccc(S(=O)(=O)NC4(CF)CC4)cc32)n1
high

Which category does the recorded EC50 put CNC(=O)n1c(=O)n(C)c2ccc(S(=O)(=O)NC3(C)CC3)cc21 in?
high

Hi, small favor: classify CCOC(=O)n1c(=O)n(C)c2ccc(S(=O)(=O)NC3(C)CC3)cc21 by its EC50 when you get a moment.
medium

Lab note: sort Cc1cccc(C(=O)n2c(=O)n(C)c3ccc(S(=O)(=O)NC4(C)CC4)cc32)c1 into the matching EC50 band.
high

Bin this entry: Cn1c(=O)n(Cc2ccc([N+](=O)[O-])o2)c2ccc(S(=O)(=O)NC3(C)CC3)cc21
high

Each compound maps to one class by EC50. Which class for Cc1csc(-n2c(=O)n(Cc3sc(C)nc3C)c3ccc(S(=O)(=O)NC4(C)CC4)cc32)n1 ?
medium

Which band does CN(C)CCCn1c(=O)n(-c2nnc(C(F)F)s2)c2cc(S(=O)(=O)NC3(CF)CC3)ccc21 fall in?
low

Which class does CN(C)C(=O)CCc1cnc(-n2c(=O)n(C)c3ccc(S(=O)(=O)NC4(C)CC4)cc32)s1 fall in?
high

Please let me know in which category the item COCCCn1c(=O)n(-c2nnc(C)s2)c2cc(S(=O)(=O)NC3(CF)CC3)ccc21 belongs.
medium

Band for the recorded EC50 of CCn1c(=O)n(-c2nnc(C(F)F)o2)c2cc(S(=O)(=O)NC3(CF)CC3)ccc21 ?
medium

Could you tell me which band COc1cc(Cn2c(=O)n(C)c3cc(S(=O)(=O)NC4(C)CC4)ccc32)cc(OC)c1 belongs to?
high

Please classify: COCCn1c(=O)n(-c2ccc(C)nn2)c2cc(S(=O)(=O)NC3(CF)CC3)c(F)cc21
high

The entry to classify is Cc1nnc(-n2cc(Cc3sc(C)nc3C)c3ccc(S(=O)(=O)NC4(C)CC4)cc32)s1 ; which class holds it?
low

Which bin, given its EC50, does C#CCn1c(=O)n(-c2nnc(C(F)F)s2)c2cc(S(=O)(=O)NC3(CF)CC3)c(F)cc21 occupy?
low

Lab log: Cc1nnc(-n2c(=O)n(CCN(C)C)c3ccc(S(=O)(=O)NC4(CF)CC4)cc32)s1 — assign EC50 category
medium

Tag the class for COCCn1c(=O)n(-c2nnc(C(F)F)s2)c2cc(S(=O)(=O)NC3(C)CC3)ccc21
low

Kindly state the category for this compound: Cc1nnc(-n2c(CCc3cnn(C)c3)nc3ccc(S(=O)(=O)NC4(C)CC4)cc32)s1
medium

Which class is correct for the following compound? Cc1nnc(-n2c(=O)n(CC3CCCN3C)c3ccc(S(=O)(=O)NC4(C)CC4)cc32)s1 (stereo not shown)
medium

Which category fits this record: Cc1nnc(-n2c(=O)n(Cc3ncco3)c3ccc(S(=O)(=O)NC4(C)CC4)cc32)s1
low
